- assaySystem: HLA-A*33:01
- procedureText: IEDB peptide-MHC binding, cellular MHC/competitive/fluorescence; bounds were set here for any values at or beyond the usual limits of such assays
- testContext: source organism: Mammarenavirus lassaense
assayReadout: pIC50
Give bare numbers, as −log10 of the molar value.

Query string: Complete the entry with pIC50 for `TSFYLISIFL`
Result string: 4.51

* * *

For each of the sequences below, state its pIC50.
- assaySystem: HLA-A*68:02
- procedureText: IEDB peptide-MHC binding, cellular MHC/competitive/fluorescence; bounds were set here for any values at or beyond the usual limits of such assays
- testContext: source organism: Vaccinia virus WR
Numbers only, as −log10 of the molar value.

For orientation, consider the following solved cases.
{"columns": ["biopolymerSequence", "pIC50"],
 "data": [
  ["YVEHDPRLVA", 4.51],
  ["YLSGTDDEVI", 4.80]
]}

Query string: Look up and state reported pIC50 for `QTLISLNSM`
Result string: 4.71

* * *

- assaySystem: HLA-A*02:01
- procedureText: IEDB peptide-MHC binding, cellular MHC/competitive/fluorescence; bounds were set here for any values at or beyond the usual limits of such assays
- testContext: source organism: Vaccinia virus WR
assayReadout: pIC50
Numbers only, as −log10 of the molar value.

Worked cases, answers included:
{"columns": ["biopolymerSequence", "assaySystem", "resultValue"],
 "data": [
  ["IIPSSIPVST", "HLA-A*02:01", 4.77],
  ["EIVKNIREGT", "HLA-A*02:01", 4.93],
  ["MTENVEEDLA", "HLA-A*02:01", 4.61],
  ["RLYDYFTRVT", "HLA-A*02:01", 5.21],
  ["IINRDIIVI", "HLA-A*02:01", 4.97]
]}

Look at each sequence and report its pIC50.
1. VVIVENDNV
2. RVNHAKYMVT
3. LVIRNEVNDT
4. AATKRYPGVM
5. VIVVPVIDRL

Result string:
[4.46, 4.41, 4.90, 4.17, 4.83]

// for each sequence in input: emit pIC50
1. YVIRHVDGKI
2. EQGDIALAL

Result string:
[5.07, 4.89]

Report pIC50 for every entry below.
1. KVTINNLKM
2. VQLVDAIDNI
3. ALSDACKKIL
4. IAMLKSKNI

Result string:
1. 5.24
2. 4.88
3. 4.75
4. 4.33

Batch lookup, pIC50 per entry.
1. ELDTLAAEI
2. MIVLITMLSI

Result string:
1: 5.02; 2: 5.21

* * *

- assaySystem: HLA-A*02:06
- procedureText: IEDB peptide-MHC binding, purified MHC/competitive/radioactivity; bounds were set here for any values at or beyond the usual limits of such assays
- testContext: source organism: Vaccinia virus WR
Hi there, I'd appreciate the recorded IC50 for every entry that follows.
Answers are plain numbers, in nM.

Consider the following illustrative entries.
{"columns": ["biopolymerSequence", "resultValue"],
 "data": [
  ["VVIVENDNV", 4300],
  ["KLLNMRDLI", 44],
  ["LTQVKELGIA", 18]
]}

# batch size: 5; output IC50 per entry
1. KIDILQMREI
2. DVNSVQFSIL
3. YVHSLLYSSM
4. YIPPCQCTV
5. ITLVVISVI

Result string:
1: 875; 2: 3400; 3: 2250; 4: 92; 5: 1030

Cited source for all entries: the Immune Epitope Database (IEDB)
